biological target: trypsin; test: enzyme inhibition assay (panel of proteases); cyc-LHSPW tested against a panel of cancer-associated proteases (Fig. 5A); conditions not given
Positions of bridges follow the written chain, without caps; N, C: chain ends. No end group written: not given here.
readout-kind: Ki

Prompt: Reported Ki for CLHSPWC (disulfide 1-7) [cyc-LHSPW] : what is it?
Response: > 100 µM
